# Assay protocol: Effect of concentration on the stability of the solution (purity over time)
# Condition description: 1 wt %; in water at 25° C.
We begin with a simple list: items and their reported Purity at Day 7.

Compound: CCN(CC)CCOC(=O)Cc1sc(-c2ccccc2)nc1-c1ccc(Cl)cc1.Cl
Purity at Day 7: 95.5%

Compound: CCN(CC)CCOC(=O)CCc1nc(-c2ccccc2)c(-c2ccccc2)o1.Cl
Purity at Day 7: 92.9%

Compound: CCN(CC)CCOC(=O)C(C)c1ccc2oc(-c3ccc(Cl)cc3)nc2c1.Cl (stereo not shown)
Purity at Day 7: 96.0%

Compound: CCN(CC)CCOC(=O)CCc1ccc2cc(OC)ccc2c1.Cl
Purity at Day 7: 96.0%

Compound: CCN(CC)CCOC(=O)Cc1ccc(C(=O)c2ccc(C)cc2)n1C.Cl
Purity at Day 7: 94.6%

Compound: CCN(CC)CCOC(=O)Cc1c(C)n(C(=O)c2ccc(Cl)cc2)c2ccc(OC)cc12.Cl
Purity at Day 7: 96.1%

Compound: CCN(CC)CCOC(=O)CC1=C(C)C(=Cc2ccc([S+](C)[O-])cc2)c2ccc(F)cc21.Cl (stereo not shown)
Purity at Day 7: 95.2%
